B1: Parvalbumin alpha, P02625 (parent)
chain: MSMTDLLSAEDIKKAIGAFTAADSFDHKKFFQMVGLKKKSADDVKKVFHILDKDKSGFIEEDELGSILKGFSSDARDLSAKETKTLMAAGDKDGDGKIGVEEFSTLVAES

# Variants of: B1
# setup-conditions: Rattus norvegicus; pH 7.4; 45.8 °C; Thermal; DSC; sodium phosphate 10 mM; NaCl 0.20 M; structure 1RTP; whole UniProt chain shown
Reported ddG of mutation (higher = less stable) by item:
I only need the number, in kcal/mol, no unit after it.

Check out these entries, answers already filled in.
{"mutations": "K81S", "result-units": "kcal/mol", "ddG of mutation (higher = less stable)": 0.29}
{"mutations": "A22P K81S", "result-units": "kcal/mol", "ddG of mutation (higher = less stable)": -0.45}
{"mutations": "A22P", "result-units": "kcal/mol", "ddG of mutation (higher = less stable)": 1.92}
{"mutations": "H27P", "result-units": "kcal/mol", "ddG of mutation (higher = less stable)": -1.25}

Problem: Entry A22P H27P : reported ddG of mutation (higher = less stable) = ?
Result: 0.5

Hey, just so you know, these numbers are from FireProtDB (doi:10.1021/bi034721x).
